Data provenance: patent US20180207078A1

Assay: Resazurin-based cell viability assay
Set-up: species or system mouse
Conditions: mouse, mature 3T3-L1 adipocytes; 250 μM (of each compound), 24-hour treatment, 1 μM dexamethasone stimulation; read-out: reduction of cell viability (number of mature adipocytes)
Procedure: The cell viability of mature adipocytes after treatment with a test compound was measured by means of a fluorimetric Resazurin-based assay. […] Finally, the Resorufin fluorescence was detected by means of a Synergy 2 plate reader (BioTek, Winooski, USA) (excitation: 540 nm, emission: 590 nm, mirror: 550 nm). […] Finally, the cell viability, as a measure of the number and fitness of the cells, was measured by means of a Resazurin assay.
experimental readout: cytotoxicity at 24 h, 250 μM (%)
Reply with just the number (in %).

Data request: Entry CC1(C)[C@@H](O)CC[C@]2(C)[C@H]3C(=O)C=C4[C@@H]5C[C@@](C)(C(=O)O)CC[C@]5(C)CC[C@@]4(C)[C@]3(C)CC[C@@H]12 [18β-glycyrrhetinic acid] has what cytotoxicity at 24 h, 250 μM?
Data returned: 28
